Sourced from ChEMBL document CHEMBL4340517

# System: Staphylococcus aureus
# assayDetails: Antibacterial activity against VAN-intermediate Staphylococcus aureus ATCC 700698 after 18 hrs by agar dilution method
# Type: functional
# experimentalConditions: ATCC 700698, 18 h
propertyName: MIC (µg/mL)
Give bare numbers, in µg/mL.

Below, each entry is followed by its recorded MIC result.
CCCc1cc2c3ccc(OC)c(OC)c3c(-c3ccccc3)[n+]3c2c2c(cc4c(c12)OCO4)CC3.[Br-]; 32
COc1cc2c3c(ccc4c5ccc(OC)c(OC)c5c(-c5ccc6c(c5)OCO6)[n+](c43)CC2)c1OC.[Br-]; 32
COc1ccc2c(c1OC)c(-c1ccc(Cl)cc1)[n+]1c3c2ccc2c4c(cc(c23)CC1)OCO4.[Br-]; 8
C=Cc1c2c(OC)c(OC)ccc2c2cc(CC)c3c4c(cc5c3c2[n+]1CC5)OCO4.[Br-]; 32
COc1cc2c3c(ccc4c5ccc(OC)c(OC)c5c(-c5ccc(Cl)cc5)[n+](c43)CC2)c1OC.[Br-]; 16

For the 3 molecules below, give their MIC values.
1. COc1ccc2c(c1OC)c(-c1ccc(F)cc1)[n+]1c3c2ccc2c4c(cc(c23)CC1)OCO4.[Br-]
2. COc1ccc2c(c1OC)c(-c1ccccc1)[n+]1c3c2ccc2c4c(cc(c23)CC1)OCO4.[Br-]
3. COc1ccc2c(c1OC)c(C1CC1)[n+]1c3c2ccc2c4c(cc(c23)CC1)OCO4.[Br-]

Result:
1. 16
2. 8
3. 16

* * *

# System: Enterococcus faecium
# assayDetails: Antibacterial activity against VAN-resistant Enterococcus faecium ATCC 700221 after 18 hrs by agar dilution method
# Type: functional
# experimentalConditions: ATCC 700221, 18 h
Would you kindly list MIC for each of these compounds?
Answers are plain numbers, in µg/mL.

Known results for compounds:
COc1ccc2c(c1OC)c(-c1ccc3c(c1)OCO3)[n+]1c3c2ccc2c4c(cc(c23)CC1)OCO4.[Br-]; 8
C=Cc1c2c(OC)c(OC)ccc2c2cc(CC)c3c4c(cc5c3c2[n+]1CC5)OCO4.[Br-]; 1
CCCCc1cc2c3ccc(OC)c(OC)c3c(-c3ccc(Cl)cc3)[n+]3c2c2c(cc4c(c12)OCO4)CC3.[Br-]; 1

Below is a list of compounds. For each, state its recorded MIC.
1. COc1ccc2c(c1OC)c(-c1ccc(C)cc1)[n+]1c3c2ccc2c4c(cc(c23)CC1)OCO4.[Br-]
2. CCc1cc2c3ccc(OC)c(OC)c3c(-c3ccccc3)[n+]3c2c2c(cc4c(c12)OCO4)CC3.[Br-]

Result:
16
1

* * *

# Test system: Staphylococcus aureus
# assayDetails: Antibacterial activity against VAN-intermediate Staphylococcus aureus ATCC 700698 after 18 hrs by agar dilution method
# Type: functional
# experimentalConditions: ATCC 700698, 18 h
Answer each item with its documented MIC.
Quick note: unit goes after the number.

COc1ccc2c(c1OC)c(-c1ccc(C)cc1)[n+]1c3c2ccc2c4c(cc(c23)CC1)OCO4.[Br-]; 16 µg/mL

Batch request: MIC per item, same order as input.
1. CCCCc1cc2c3ccc(OC)c(OC)c3c(-c3ccc(Cl)cc3)[n+]3c2c2c(cc4c(c12)OCO4)CC3.[Br-]
2. CCCCc1cc2c3ccc(OC)c(OC)c3c[n+]3c2c2c(cc4c(c12)OCO4)CC3.[Cl-]
3. CCc1c2c(OC)c(OC)ccc2c2ccc3c4c(cc5c3c2[n+]1CC5)OCO4.[Br-]
4. CCCc1cc2c3ccc(OC)c(OC)c3c(-c3ccc(Cl)cc3)[n+]3c2c2c(cc4c(c12)OCO4)CC3.[Br-]

Result:
32 µg/mL
16 µg/mL
64 µg/mL
32 µg/mL

Each compound below has a reported value. Please supply its MIC.
1. CCCc1cc2c3ccc(OC)c(OC)c3c[n+]3c2c2c(cc4c(c12)OCO4)CC3.[Cl-]
2. COc1ccc2c(c1OC)c(-c1ccc3c(c1)OCO3)[n+]1c3c2ccc2c4c(cc(c23)CC1)OCO4.[Br-]
3. CCc1cc2c3ccc(OC)c(OC)c3c(CC(C)C)[n+]3c2c2c(cc4c(c12)OCO4)CC3.[Br-]

Result:
1: 8 µg/mL; 2: 32 µg/mL; 3: 32 µg/mL

* * *

# Test system: Staphylococcus epidermidis
# assayDetails: Antibacterial activity against methicillin-resistant Staphylococcus epidermidis 13-3 after 18 hrs by agar dilution method
# Type: functional
# experimentalConditions: 13-3, 18 h
I'd be grateful if you could share measured MIC for these entries.
Give bare numbers, in mg/L.

CCCCc1cc2c3ccc(OC)c(OC)c3c[n+]3c2c2c(cc4c(c12)OCO4)CC3.[Cl-]; 32
COc1ccc2c(c1OC)c(-c1ccc(F)cc1)[n+]1c3c2ccc2c4c(cc(c23)CC1)OCO4.[Br-]; 4
COc1cc2c3c(ccc4c5ccc(OC)c(OC)c5c(-c5ccc6c(c5)OCO6)[n+](c43)CC2)c1OC.[Br-]; 2
CCc1cc2c3ccc(OC)c(OC)c3c(CC(C)C)[n+]3c2c2c(cc4c(c12)OCO4)CC3.[Br-]; 1
COc1ccc2c(c1OC)c(-c1ccc3c(c1)OCO3)[n+]1c3c2ccc2c4c(cc(c23)CC1)OCO4.[Br-]; 2
C=Cc1c2c(OC)c(OC)ccc2c2ccc3c4c(cc5c3c2[n+]1CC5)OCO4.[Br-]; 2
COc1cc2c3c(ccc4c5ccc(OC)c(OC)c5c(-c5ccc(Cl)cc5)[n+](c43)CC2)c1OC.[Br-]; 2
C=Cc1c2c(OC)c(OC)ccc2c2cc(CC)c3c4c(cc5c3c2[n+]1CC5)OCO4.[Br-]; 1

Let's switch to this molecule now.
Query: Report MIC for CCc1c2c(OC)c(OC)ccc2c2ccc3c4c(cc5c3c2[n+]1CC5)OCO4.[Br-]
Result: 4

* * *

# Tested on: Staphylococcus epidermidis
# assayDetails: Antibacterial activity against methicillin-resistant Staphylococcus epidermidis 13-3 after 18 hrs by agar dilution method
# Format: functional
# experimentalConditions: 13-3, 18 h
Exercise: state measured MIC for each of the molecules provided.
Numbers only, in µg/mL.

COc1ccc2c(c1OC)c(-c1ccccc1)[n+]1c3c2ccc2c4c(cc(c23)CC1)OCO4.[Br-]; 1
COc1ccc2c(c1OC)c(-c1ccc(Cl)cc1)[n+]1c3c2ccc2c4c(cc(c23)CC1)OCO4.[Br-]; 1
COc1ccc2c(c1OC)c(C1CC1)[n+]1c3c2ccc2c4c(cc(c23)CC1)OCO4.[Br-]; 8
COc1ccc2c(c1OC)c(CC(C)C)[n+]1c3c2ccc2c4c(cc(c23)CC1)OCO4.[Br-]; 4
CCCc1cc2c3ccc(OC)c(OC)c3c(-c3ccccc3)[n+]3c2c2c(cc4c(c12)OCO4)CC3.[Br-]; 2

State recorded MIC for all listed molecules.
1. CCOc1c(OC)ccc2c1c(-c1ccccc1)[n+]1c3c2ccc2c4c(cc(c23)CC1)OCO4.[Br-]
2. CCc1cc2c3ccc(OC)c(OC)c3c[n+]3c2c2c(cc4c(c12)OCO4)CC3.[Cl-]
3. C=CCc1c2c(OC)c(OC)ccc2c2ccc3c4c(cc5c3c2[n+]1CC5)OCO4.[Br-]

Result:
1
1
8

* * *

What MIC was measured for each of the following?
# Tested on: Staphylococcus aureus
# assayDetails: Antibacterial activity against VAN-intermediate Staphylococcus aureus ATCC 700698 after 18 hrs by agar dilution method
# Type: functional
# experimentalConditions: ATCC 700698, 18 h

C=CCc1c2c(OC)c(OC)ccc2c2ccc3c4c(cc5c3c2[n+]1CC5)OCO4.[Br-]; 16 µg/mL
C=Cc1c2c(OC)c(OC)ccc2c2ccc3c4c(cc5c3c2[n+]1CC5)OCO4.[Br-]; 8 µg/mL
CCCCc1cc2c3ccc(OC)c(OC)c3c(-c3ccccc3)[n+]3c2c2c(cc4c(c12)OCO4)CC3.[Br-]; 32 µg/mL

// input: 7 compounds below; output: MIC for each
1. CCc1cc2c3ccc(OC)c(OC)c3c[n+]3c2c2c(cc4c(c12)OCO4)CC3.[Cl-]
2. CN[C@H](CC(C)C)C(=O)N[C@H]1C(=O)N[C@@H](CC(N)=O)C(=O)N[C@H]2C(=O)N[C@H]3C(=O)N[C@H](C(=O)N[C@H](C(=O)O)c4cc(O)cc(O)c4-c4cc3ccc4O)[C@H](O)c3ccc(c(Cl)c3)Oc3cc2cc(c3O[C@@H]2O[C@H](CO)[C@@H](O)[C@H](O)[C@H]2O[C@H]2C[C@](C)(N)[C@H](O)[C@H](C)O2)Oc2ccc(cc2Cl)[C@H]1O
3. CCOc1c(OC)ccc2c1c(-c1ccccc1)[n+]1c3c2ccc2c4c(cc(c23)CC1)OCO4.[Br-]
4. CCc1cc2c3ccc(OC)c(OC)c3c(-c3ccc(Cl)cc3)[n+]3c2c2c(cc4c(c12)OCO4)CC3.[Br-]
5. CCc1cc2c3ccc(OC)c(OC)c3c(-c3ccccc3)[n+]3c2c2c(cc4c(c12)OCO4)CC3.[Br-]
6. COc1ccc2c(c1OC)c(CC(C)C)[n+]1c3c2ccc2c4c(cc(c23)CC1)OCO4.[Br-]
7. COc1cc2c3c(ccc4c5ccc(OC)c(OC)c5c(-c5ccccc5)[n+](c43)CC2)c1OC.[Br-]

Result:
["16 µg/mL", "8 µg/mL", "32 µg/mL", "32 µg/mL", "32 µg/mL", "16 µg/mL", "32 µg/mL"]
